CC50 overview
# Test system: PC3 prostate cancer cell line
# protocol_description: qHTS cell viability screen (Cell Titer Glo), PC3
# Format: cell-based
# test_parameters: 72 h, PC3 prostate, 72 hours, cell viability Cell Titer Glo; read-out: CC50 PC3

[
  {
    "entry_smiles": "COc1cc(/C=C2/C(C)=C(CNC(=O)[C@@H](N)C(C)C)c3cc(F)ccc32)cc(OC)c1OC",
    "endpoint_value": "< 10 µM"
  }
]

QUERY: Data request, read-out CC50, for "COc1cc(/C=C2/C(C)=C(CN(CCc3ccccc3)CCc3ccccc3)c3cc(F)ccc32)cc(OC)c1OC"
RESULT: > 50 µM

QUERY: Data request, read-out CC50, for "CSc1ccc(/C=C2/C(C)=C(CNC(=O)[C@@H](N)CC(C)C)c3cc(F)ccc32)cc1"
RESULT: < 10 µM

QUERY: Data request, read-out CC50, for "COc1cc(/C=C2/C(C)=C(CN(Cc3ccc4ccccc4c3)Cc3ccc4ccccc4c3)c3cc(F)ccc32)cc(OC)c1OC"
RESULT: > 50 µM

---

CC50 overview
# Tested on: MDA-MB-231 breast cancer cell line
# protocol_description: qHTS cell viability screen (Cell Titer Glo), MDA-MB-231
# Assay type: cell-based
# test_parameters: MDA-MB-231 breast, 96 hours, cell viability Cell Titer Glo; read-out: CC50 MDA-MB-231

Before answering, review these 3 worked examples.
[
  {
    "entry_smiles": "COc1cc(/C=C2/C(C)=C(CNC(=O)c3ccco3)c3cc(F)ccc32)cc(OC)c1OC",
    "endpoint_value": "> 50 µM"
  },
  {
    "entry_smiles": "CSc1ccc(/C=C2/C(C)=C(CCNCCN3CCCCC3)c3cc(F)ccc32)cc1",
    "endpoint_value": "3.73 µM"
  },
  {
    "entry_smiles": "COc1cc(/C=C2/C(C)=C(CNC(=O)CN)c3cc(F)ccc32)cc(OC)c1OC",
    "endpoint_value": "9.92 µM"
  }
]

QUERY: Data request, read-out CC50, for "CSc1ccc(/C=C2/C(C)=C(CCNCc3ccco3)c3cc(F)ccc32)cc1"
RESULT: 7.77 µM

QUERY: Data request, read-out CC50, for "CSc1ccc(/C=C2/C(C)=C(CNC(=O)CN)c3cc(F)ccc32)cc1"
RESULT: 7.3 µM

QUERY: Data request, read-out CC50, for "COc1cc(/C=C2/C(C)=C(CNS(=O)(=O)c3ccccc3)c3cc(F)ccc32)cc(OC)c1OC"
RESULT: 16.3 µM

QUERY: Data request, read-out CC50, for "COc1cc(/C=C2/C(C)=C(CNC(=O)[C@@H](N)C(C)C)c3cc(F)ccc32)cc(OC)c1OC"
RESULT: 7.3 µM

QUERY: Data request, read-out CC50, for "COc1cc(/C=C2/C(C)=C(CNS(=O)(=O)c3cccc4c(N(C)C)cccc34)c3cc(F)ccc32)cc(OC)c1OC"
RESULT: > 50 µM

QUERY: Data request, read-out CC50, for "COc1cc(/C=C2/C(C)=C(CNS(=O)(=O)c3cccc4ccccc34)c3cc(F)ccc32)cc(OC)c1OC"
RESULT: > 50 µM

QUERY: Data request, read-out CC50, for "CSc1ccc(/C=C2/C(C)=C(CNC(=O)c3ccco3)c3cc(F)ccc32)cc1"
RESULT: 41.2 µM

QUERY: Data request, read-out CC50, for "COc1cc(/C=C2/C(C)=C(CNS(=O)(=O)c3ccc(C)cc3)c3cc(F)ccc32)cc(OC)c1OC"
RESULT: 44.5 µM

QUERY: Data request, read-out CC50, for "CSc1ccc(/C=C2/C(C)=C(CNS(=O)(=O)c3cccc4c(N(C)C)cccc34)c3cc(F)ccc32)cc1"
RESULT: > 50 µM

QUERY: Data request, read-out CC50, for "CSc1ccc(/C=C2/C(C)=C(CCNCc3ccccc3)c3cc(F)ccc32)cc1"
RESULT: 46.5 µM

QUERY: Data request, read-out CC50, for "CSc1ccc(/C=C2/C(C)=C(CNC(=O)[C@@H](N)CC(C)C)c3cc(F)ccc32)cc1"
RESULT: 6.7 µM
